Target under test: cloned human NR1/NR2A (Homo sapiens (Human), UniProt Q12879)
Sequence (Q12879 23-1464, other chains not shown): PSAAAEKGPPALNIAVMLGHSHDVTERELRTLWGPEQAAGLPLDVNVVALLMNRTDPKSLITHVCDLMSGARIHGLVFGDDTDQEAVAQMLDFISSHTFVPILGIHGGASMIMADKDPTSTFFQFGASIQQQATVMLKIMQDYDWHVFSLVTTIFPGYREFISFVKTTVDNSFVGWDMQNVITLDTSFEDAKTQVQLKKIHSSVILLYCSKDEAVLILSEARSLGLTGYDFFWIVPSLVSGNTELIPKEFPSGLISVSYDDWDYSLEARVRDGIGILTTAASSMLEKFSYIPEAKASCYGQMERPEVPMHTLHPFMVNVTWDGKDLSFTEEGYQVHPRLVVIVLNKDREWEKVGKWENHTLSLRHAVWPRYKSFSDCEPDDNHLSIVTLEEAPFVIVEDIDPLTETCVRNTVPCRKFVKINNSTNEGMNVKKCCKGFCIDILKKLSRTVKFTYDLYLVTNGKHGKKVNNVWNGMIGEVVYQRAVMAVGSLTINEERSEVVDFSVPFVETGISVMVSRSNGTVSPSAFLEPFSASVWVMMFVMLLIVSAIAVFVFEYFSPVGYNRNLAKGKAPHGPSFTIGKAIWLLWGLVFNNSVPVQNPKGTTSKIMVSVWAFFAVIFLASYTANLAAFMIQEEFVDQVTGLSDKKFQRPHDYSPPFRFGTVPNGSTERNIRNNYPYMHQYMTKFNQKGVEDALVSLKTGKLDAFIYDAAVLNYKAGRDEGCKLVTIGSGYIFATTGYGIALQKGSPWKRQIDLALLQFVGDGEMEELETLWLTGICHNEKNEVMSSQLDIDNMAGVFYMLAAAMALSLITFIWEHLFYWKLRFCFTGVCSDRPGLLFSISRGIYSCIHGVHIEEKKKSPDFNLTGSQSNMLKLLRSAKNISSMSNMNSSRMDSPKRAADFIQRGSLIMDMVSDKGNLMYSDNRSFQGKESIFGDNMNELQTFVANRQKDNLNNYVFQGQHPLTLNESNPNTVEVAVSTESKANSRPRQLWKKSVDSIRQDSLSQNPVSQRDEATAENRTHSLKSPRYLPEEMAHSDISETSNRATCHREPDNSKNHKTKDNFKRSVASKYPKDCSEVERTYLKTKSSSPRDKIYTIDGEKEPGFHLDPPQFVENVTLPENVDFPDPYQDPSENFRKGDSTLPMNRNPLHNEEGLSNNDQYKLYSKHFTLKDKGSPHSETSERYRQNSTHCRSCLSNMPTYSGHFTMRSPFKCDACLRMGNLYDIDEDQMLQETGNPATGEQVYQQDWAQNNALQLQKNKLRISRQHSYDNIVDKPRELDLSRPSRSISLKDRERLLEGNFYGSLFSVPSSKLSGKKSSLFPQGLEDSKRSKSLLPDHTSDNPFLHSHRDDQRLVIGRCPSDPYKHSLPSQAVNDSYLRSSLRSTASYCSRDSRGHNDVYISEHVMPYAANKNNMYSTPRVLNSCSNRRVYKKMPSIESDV
Procedure text: NR2A antagonist activity, Fluo-4 calcium influx in HEK293 cells
Condition summary: glutamate 100 μM, glycine 50 μM
pIC50: −log10 of the molar value.
Listed here: items and their measured pIC50.

Compound: Cc1ccc(COC(=O)N2CC[C@H](CNc3ncc4cn[nH]c4n3)C(F)(F)C2)cc1 [Compound E1-8.2]
pIC50: < 5.00
//
Compound: Cc1ccc(COC(=O)N2CC[C@H](CNc3nccn4cnnc34)C(F)(F)C2)cc1 [Compound E1-1.2]
pIC50: < 5.00
//
Compound: Cc1ccc(COC(=O)N2CC[C@H](CNc3nc4ccccn4n3)C(F)(F)C2)cc1 [Compound E1-9.2]
pIC50: < 5.00

---

Target under test: CYP2D6 (Homo sapiens (Human))
Sequence (P10635 whole entry): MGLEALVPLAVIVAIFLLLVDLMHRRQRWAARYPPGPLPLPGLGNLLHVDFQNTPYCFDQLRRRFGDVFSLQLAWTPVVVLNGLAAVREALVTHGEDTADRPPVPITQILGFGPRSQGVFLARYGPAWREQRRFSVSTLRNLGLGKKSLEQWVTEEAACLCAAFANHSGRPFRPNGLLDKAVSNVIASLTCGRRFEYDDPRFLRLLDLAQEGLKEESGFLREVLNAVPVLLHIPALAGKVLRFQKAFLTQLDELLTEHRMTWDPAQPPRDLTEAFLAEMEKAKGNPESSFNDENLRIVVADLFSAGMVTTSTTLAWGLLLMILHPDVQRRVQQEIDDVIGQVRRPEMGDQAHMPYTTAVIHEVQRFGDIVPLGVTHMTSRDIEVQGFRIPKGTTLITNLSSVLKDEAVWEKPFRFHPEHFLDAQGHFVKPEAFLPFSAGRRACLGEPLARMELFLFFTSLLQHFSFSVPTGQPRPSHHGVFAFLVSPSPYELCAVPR
Procedure text: CYP P450 enzyme inhibition, pooled human liver microsome
Type: in vitro ADME
Condition summary: HLM, dextromethorphan 5 μM
Property: CYP2D6 @ 10 μM (%)

Compound: FC(F)(F)c1ccc(C(F)(F)CN2CCC(Nc3ncnc4[nH]ncc34)CC2)cc1 [LX-1, reference compound]
Units of measure: %
Experimental value: 93

Compound: Cc1ccc(COC(=O)N2CC[C@H](CNc3nccn4cnnc34)C(F)(F)C2)cc1 [Compound E1-1.2]
Units of measure: %
Experimental value: 14

Compound: Cc1ccc(COC(=O)N2CC[C@H](CNc3nc4ccccn4n3)C(F)(F)C2)cc1 [Compound E1-9.2]
Units of measure: %
Experimental value: 14

Compound: Cc1ccc(COC(=O)N2CC[C@H](CNc3cnc(C)cn3)C(F)(F)C2)cc1 [Compound E1-21.26]
Units of measure: %
Experimental value: 32

Compound: Cc1ccc(COC(=O)N2CC[C@H](CNc3ncc4cn[nH]c4n3)C(F)(F)C2)cc1 [Compound E1-8.2]
Units of measure: %
Experimental value: 83

Compound: Cc1ccc(COC(=O)N2CC[C@H](CNc3cnccn3)C(F)(F)C2)cc1 [Compound E1-21.2]
Units of measure: %
Experimental value: 97

Compound: Cc1ccc(COC(=O)N2CC[C@H](CNc3cncc4nncn34)C(F)(F)C2)cc1 [Compound E1-2.2]
Units of measure: %
Experimental value: 18

Compound: O=C(OCc1ccc(Cl)cc1)N1CC[C@H](CNc2nccn3cnnc23)C(F)(F)C1 [Compound E1-1.3]
Units of measure: %
Experimental value: 37

Compound: O=C(OCc1ccc(F)cc1)N1CC[C@H](CNc2nccn3cnnc23)C(F)(F)C1 [Compound E1-1.4]
Units of measure: %
Experimental value: 19

---

Test system: NMDA receptor (all subtypes), native rat brain receptors
Procedure text: [3H] MK-801 radioligand binding assay, rat brain membranes
Condition summary: 2 nM [3H] MK-801, rat brain membranes
The entries below come with measured partial effect on [3H] MK-801 binding values attached.
Property: partial effect on [3H] MK-801 binding (%)

Compound: O=C(OCc1ccc(F)cc1)N1CC[C@H](CNc2nccn3cnnc23)C(F)(F)C1 [Compound E1-1.4]
Experimental value: 32
//
Compound: Cc1ccc(COC(=O)N2CC[C@H](CNc3nccn4cnnc34)C(F)(F)C2)cc1 [Compound E1-1.2]
Experimental value: 40
//
Compound: Cc1ccc(COC(=O)N2CC[C@H](CNc3ncc4cn[nH]c4n3)C(F)(F)C2)cc1 [Compound E1-8.2]
Experimental value: 33
//
Compound: O=C(OCc1ccc(Cl)cc1)N1CC[C@H](CNc2nccn3cnnc23)C(F)(F)C1 [Compound E1-1.3]
Experimental value: 41
//
Compound: Cc1ccc(COC(=O)N2CC[C@H](CNc3nc4ccccn4n3)C(F)(F)C2)cc1 [Compound E1-9.2]
Experimental value: 34
//
Compound: Cc1ccc(COC(=O)N2CC[C@@H](CNc3nccn4cnnc34)C(F)(F)C2)cc1 [Compound E2-1.2]
Experimental value: 36
//
Compound: CCc1ccc(COC(=O)N2CC[C@H](CNc3nccn4cnnc34)C(F)(F)C2)cc1 [Compound E1-1.5]
Experimental value: 48
//
Compound: Cc1ccc(COC(=O)N2CC[C@H](CNc3cnc(C)cn3)C(F)(F)C2)cc1 [Compound E1-21.26]
Experimental value: 41
//
Compound: Cc1ccc(COC(=O)N2CC[C@H](CNc3cnccn3)C(F)(F)C2)cc1 [Compound E1-21.2]
Experimental value: 49
